# Read-out: Tissue plasminogen activator (tPA), PLAT (gene 5327)
# procedure text: BSK_BE3C_tPA: BioMAP Diversity Plus: BE3C Assay for Tissue plasminogen activator (tPA) Biomarker Activity (AID 2283041);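 on outcome: tPA level quantified by ELISA one day after compound addition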
# assay setup: primary human bronchial epithelial cells; actives raise or lower the signal
Calls of active or inactive are those of the source. How the source made its calls: active means hit-call score of the fitted dose curve at least 0.9, where 1 is the maximum; inactive means score below 0.9.
Your reply should match one of these outcome classes. True (active), False (inactive)

Study these solved cases before continuing.
{"structure notation": "CNC(=O)Oc1cccc2c1OC(C)(C)O2", "assigned class": "False"}
{"structure notation": "Nc1nc(N)nc(NC2CC2)n1", "assigned class": "False"}
{"structure notation": "CCOP(=O)(OCC)Oc1cc(C)nc(C(C)C)n1", "assigned class": "False"}
{"structure notation": "CCCOc1nn(C(=O)NS(=O)(=O)c2ccccc2C(=O)OC)c(=O)n1C", "assigned class": "False"}
{"structure notation": "CCCSP(=O)(OCC)SCCC", "assigned class": "False"}

Request: What is the recorded call for this compound in the test? `Cc1ccn2nc(S(=O)(=O)Nc3c(F)cccc3F)nc2n1`
Result: False

Request: // query: `O=[N+]([O-])c1cc(C(F)(F)F)c(Cl)c([N+](=O)[O-])c1Nc1ncc(C(F)(F)F)cc1Cl`
Result: True

Request: // query: `CCCCN(CC)c1c([N+](=O)[O-])cc(C(F)(F)F)cc1[N+](=O)[O-]`
Result: False

Request: // query: `CC1(C(=O)Nc2ccc(O)c(Cl)c2Cl)CCCCC1`
Result: False

Request: // query: `CNC(=O)ON=C(SC)C(=O)N(C)C`
Result: False

Request: // query: `O=C(O)c1cc(Oc2ccc(C(F)(F)F)cc2Cl)ccc1[N+](=O)[O-]`
Result: False

Request: // query: `N#CSCSC#N`
Result: False

---

# Read-out: urokinase plasminogen activator (uPA), PLAU (gene 5328)
# procedure text: BSK_KF3CT_uPA: BioMAP Diversity Plus: KF3CT Assay for urokinase plasminogen activator (uPA) Biomarker Activity (AID 2283075)
# assay setup: primary human keratinocytes with fibroblasts; actives raise or lower the signal
Activity calls are given as the source filed them. How the source made its calls: active means hit-call score of the fitted dose curve at least 0.9, where 1 is the maximum; inactive means score below 0.9.
Your reply should match one of these outcome classes. Yes for active, No for inactive

{"compound": "CC(C)N(C(=O)SCC(Cl)=C(Cl)Cl)C(C)C", "assigned class": "Yes"}
{"compound": "CCOP(=O)(OCC)Oc1cc(C)nc(C(C)C)n1", "assigned class": "Yes"}
{"compound": "CSc1nc(NC(C)C)nc(NC(C)C)n1", "assigned class": "No"}
{"compound": "CCC(=O)Nc1ccc(Cl)c(Cl)c1", "assigned class": "No"}

Request: What is the recorded call for this compound in the test? CC(C)=CC1C(C(=O)OCN2C(=O)C3=C(CCCC3)C2=O)C1(C)C (stereo unspecified)
Result: No

Request: // query: `CSC1=N[C@@](C)(c2ccccc2)C(=O)N1Nc1ccccc1`
Result: No

Request: // query: `S=C1NCCN1`
Result: No

Request: // query: `CCOC(=O)COc1cc(-c2nn(C)c(OC(F)F)c2Cl)c(F)cc1Cl`
Result: No

Request: // query: `C#CC(C)(C)NC(=O)c1cc(Cl)cc(Cl)c1`
Result: No

Request: // query: CCOP(=O)(SC(C)CC)N1CCSC1=O (stereo unspecified)
Result: No

Request: // query: `CCCOc1nn(C(=O)NS(=O)(=O)c2ccccc2C(=O)OC)c(=O)n1C`
Result: No

---

# Read-out: TIMP metallopeptidase inhibitor 2 (TIMP2), TIMP2 (gene 7077)
# procedure text: BSK_KF3CT_TIMP2: BioMAP Diversity Plus: KF3CT Assay for TIMP metallopeptidase inhibitor 2 (TIMP2) Biomarker Activity (AID 2283071)
# assay setup: primary human keratinocytes with fibroblasts; actives raise or lower the signal
The source made the active and inactive calls. Rule for the calls: active = hit-call score of the fitted dose curve at least 0.9, where 1 is the maximum; inactive = score below 0.9.
Your reply should match one of these outcome classes. TRUE = active, FALSE = inactive

{"compound": "C[N+]1(C)CCCCC1", "assigned class": "FALSE"}

Request: What is the recorded call for this compound in the test? `CCCCN(CC)c1c([N+](=O)[O-])cc(C(F)(F)F)cc1[N+](=O)[O-]`
Result: FALSE

Request: // query: CC(COc1ccc(Oc2ccccc2)cc1)Oc1ccccn1 (stereo unspecified)
Result: FALSE

Request: // query: `CCC(=O)Nc1ccc(Cl)c(Cl)c1`
Result: FALSE

---

# Read-out: growth arrest and DNA damage 45 (GADD45A), GADD45A (gene 1647)
# procedure text: LTEA_HepaRG_GADD45A: Life Technologies and Expression Analysis (LTEA) Assay for growth arrest and DNA damage 45 (GADD45A) using HepaRG (AID 2283458)
# assay setup: mRNA level, 48 h; actives raise or lower the signal
Active and inactive are the calls of the source. How the source made its calls: active means hit-call score of the fitted dose curve at least 0.9, where 1 is the maximum; inactive means score below 0.9.
Your reply should match one of these outcome classes. active, inactive

Study these solved cases before continuing.
{"compound": "COP(=O)(OC)SCn1c(=O)oc2cc(Cl)cnc21", "assigned class": "active"}
{"compound": "CCC(=O)Nc1ccc(Cl)c(Cl)c1", "assigned class": "inactive"}
{"compound": "CCCOc1nn(C(=O)NS(=O)(=O)c2ccccc2C(=O)OC)c(=O)n1C", "assigned class": "inactive"}

Request: What is the recorded call for this compound in the test? `CCc1cccc(CC)c1N(COC)C(=O)CCl`
Result: inactive

Request: // query: `CC(C)[C@H](C(=O)O[C@H](C#N)c1cccc(Oc2ccccc2)c1)c1ccc(Cl)cc1`
Result: inactive

Request: // query: `CC1(C(=O)Nc2ccc(O)c(Cl)c2Cl)CCCCC1`
Result: inactive

---

# Read-out: Tumor necrosis factor receptor superfamily member 6 (Homo sapiens) (UniProt P25445)
# procedure text: LTEA_HepaRG_FAS: Life Technologies and Expression Analysis (LTEA) Assay for Fas cell surface death receptor (FAS) using HepaRG (AID 2283447)
# assay setup: mRNA level, 48 h; actives raise or lower the signal
The source made the active and inactive calls. How the source made its calls: active means hit-call score of the fitted dose curve at least 0.9, where 1 is the maximum; inactive means score below 0.9.
Your reply should match one of these outcome classes. active, inactive

Study these solved cases before continuing.
{"compound": "CC(C)=CC1C(C(=O)OCN2C(=O)C3=C(CCCC3)C2=O)C1(C)C (stereo unspecified)", "assigned class": "inactive"}
{"compound": "CNC(=O)ON=C(SC)C(=O)N(C)C", "assigned class": "inactive"}

Here is another compound to look at.
Request: What is the recorded call for this compound in the test? CCOP(=S)(OCC)OC(Cl)C(Cl)(Cl)Cl (stereo unspecified)
Result: inactive

---

# procedure text: CCTE_Mundy_HCI_iCellGluta_NOG_NeuriteLength: CCTE's Neurite Outgrowth Assay in iCellGluta cells for Neurite Length, Mundy Lab (AID 2284318)
Records with an inconclusive call do not appear. Activity calls are given as the source filed them. How the source made its calls: active means hit-call score of the fitted dose curve at least 0.9, where 1 is the maximum; inconclusive means response in the unintended direction; inactive means score below 0.9.
property label: AC50

Some molecules with known AC50 results, for comparison:
{"structure notation": "CCOP(=S)(OCC)Oc1ccc([N+](=O)[O-])cc1", "property label": "AC50", "reported measurement": "inactive"}
{"structure notation": "O=[N+]([O-])c1cc(C(F)(F)F)c(Cl)c([N+](=O)[O-])c1Nc1ncc(C(F)(F)F)cc1Cl", "property label": "AC50", "reported measurement": "0.714 µM (active)"}
{"structure notation": "CN1COCN(Cc2cnc(Cl)s2)C1=N[N+](=O)[O-]", "property label": "AC50", "reported measurement": "inactive"}
{"structure notation": "CSC1=N[C@@](C)(c2ccccc2)C(=O)N1Nc1ccccc1", "property label": "AC50", "reported measurement": "inactive"}

Attention now shifts to the item below.
Request: Would you mind telling me what AC50 value was observed for `CC1=NNC(=O)N(/N=C/c2cccnc2)C1` ?
Result: inactive

---

# Read-out: Interferon-gamma inducible Protein 10 (IP10), CXCL10 (gene 3627)
# procedure text: BSK_KF3CT_IP10: BioMAP Diversity Plus: KF3CT Assay for Interferon-gamma inducible Protein 10 (IP10) Biomarker Activity (AID 2283068)
# assay setup: primary human keratinocytes with fibroblasts; actives raise or lower the signal
Activity calls are given as the source filed them. Rule for the calls: active = hit-call score of the fitted dose curve at least 0.9, where 1 is the maximum; inactive = score below 0.9.
Your reply should match one of these outcome classes. yes = active, no = inactive

Study these solved cases before continuing.
{"molecule": "Nc1nc(N)nc(NC2CC2)n1", "assigned class": "no"}
{"molecule": "CCC(CC)Nc1c([N+](=O)[O-])cc(C)c(C)c1[N+](=O)[O-]", "assigned class": "yes"}
{"molecule": "O=c1ccc(=O)[nH][nH]1", "assigned class": "no"}
{"molecule": "C[Si](Cn1cncn1)(c1ccc(F)cc1)c1ccc(F)cc1", "assigned class": "no"}
{"molecule": "CCCCSP(=O)(SCCCC)SCCCC", "assigned class": "no"}
{"molecule": "COc1ccc(C(=CC(=O)N2CCOCC2)c2ccc(Cl)cc2)cc1OC", "assigned class": "no"}
{"molecule": "N#CSCSC#N", "assigned class": "yes"}
{"molecule": "O=C(O)c1cc(Oc2ccc(C(F)(F)F)cc2Cl)ccc1[N+](=O)[O-]", "assigned class": "no"}
{"molecule": "CC(COc1ccc(Oc2ccccc2)cc1)Oc1ccccn1 (configuration not stated)", "assigned class": "no"}
{"molecule": "CNC(=O)ON=C(SC)C(=O)N(C)C", "assigned class": "no"}

Here is another molecule to look at.
Request: What is the recorded call for this molecule in the test? CCC(=NOC/C=C/Cl)C1=C(O)CC(C2CCOCC2)CC1=O (configuration not stated)
Result: no

// data source = PubChem BioAssay (EPA / NIEHS)
